Where do these numbers come from? They come from patent US9850273B2.

Target: progesterone receptor (Homo sapiens, UniProt P06401)
Test: PR transactivation assay, antagonistic activity (PR luciferase reporter)
Assay type: cell-based
Settings: T47D cells, stimulant R5020
Sequence (P06401 165-933 limits assumed): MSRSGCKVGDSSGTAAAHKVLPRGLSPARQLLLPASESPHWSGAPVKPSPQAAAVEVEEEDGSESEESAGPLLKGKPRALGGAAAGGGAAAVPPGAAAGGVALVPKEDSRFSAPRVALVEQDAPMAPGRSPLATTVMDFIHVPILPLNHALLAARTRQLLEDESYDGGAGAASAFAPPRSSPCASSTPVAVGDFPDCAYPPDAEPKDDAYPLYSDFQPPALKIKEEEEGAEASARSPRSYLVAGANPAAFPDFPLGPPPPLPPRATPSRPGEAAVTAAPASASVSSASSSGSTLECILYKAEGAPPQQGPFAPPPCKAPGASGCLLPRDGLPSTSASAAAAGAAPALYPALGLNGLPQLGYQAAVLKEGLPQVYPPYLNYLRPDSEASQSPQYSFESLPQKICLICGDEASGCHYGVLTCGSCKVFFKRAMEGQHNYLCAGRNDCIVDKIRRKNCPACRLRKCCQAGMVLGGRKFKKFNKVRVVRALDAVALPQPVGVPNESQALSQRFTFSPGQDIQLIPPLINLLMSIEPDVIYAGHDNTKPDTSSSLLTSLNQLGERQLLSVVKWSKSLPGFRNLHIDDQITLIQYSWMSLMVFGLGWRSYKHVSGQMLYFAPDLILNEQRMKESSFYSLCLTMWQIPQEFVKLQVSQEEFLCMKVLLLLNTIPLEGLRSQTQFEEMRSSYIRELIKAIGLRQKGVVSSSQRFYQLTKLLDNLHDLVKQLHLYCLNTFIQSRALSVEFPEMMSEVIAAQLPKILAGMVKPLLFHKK
MEASURED PROPERTY: Antagonist rel to RU486 (%)

| COMPOUND | SYSTEM TESTED | MEASURED PROPERTY | READOUT UNIT | MEASURED RESULT |
| --- | --- | --- | --- | --- |
| C[C@]12C[C@H](c3ccc(-c4ccoc4)cc3)C3=C4CCC(=O)C=C4CCC3C1CCC21OCCC1=C(F)F (stereo partly shown) | progesterone receptor (Homo sapiens, UniProt P06401) | Antagonist rel to RU486 (%) | % | 240 |
| C=C[C@@H]1CC2C3CCC4=CC(=O)CCC4=C3[C@@H](c3ccc(-n4ccnc4)cc3)C[C@]2(C)C1C(C)=O (stereo partly shown) | progesterone receptor (Homo sapiens, UniProt P06401) | Antagonist rel to RU486 (%) | % | 120 |
| C[C@]12C[C@H](c3ccc(-n4ccnc4)cc3)C3=C4CCC(=O)C=C4CCC3C1CC[C@@]2(O)C(F)(F)C(F)(F)F (stereo partly shown) | progesterone receptor (Homo sapiens, UniProt P06401) | Antagonist rel to RU486 (%) | % | 255.3 |
| CC[C@@H]1CC2C3CCC4=CC(=O)CCC4=C3[C@@H](c3ccc(-c4cccnc4)cc3)C[C@]2(C)C1C(C)=O (stereo partly shown) | progesterone receptor (Homo sapiens, UniProt P06401) | Antagonist rel to RU486 (%) | % | 120 |

[a] COCC(=O)[C@@]1(OC(C)=O)CC[C@H]2[C@@H]3CCC4=CC(=O)CCC4=C3[C@@H](c3ccc(N(C)C)cc3)C[C@@]21C [CDB-4124, reference compound]
[b] C[C@]12C[C@H](c3ccc(-c4cccnc4)cc3)C3=C4CCC(=O)C=C4CCC3C1CCC21OCCC1=C(F)F (stereo partly shown)
Prompt line: // compare measured Antagonist rel to RU486 (%), left a , right b , return larger Output the label that corresponds to your choice.
Response line: a

---

Target: progesterone receptor (Homo sapiens)
Assay: PR transactivation assay, agonistic activity (PR luciferase reporter)
Type: cell-based
Settings: T47D cells
Method: Transactivation Assay for Progesterone Agonist and Antagonistic Activity (See Table 1). Experimental: PR transactivation studies was carried out in human breast cancer (T47D) cells, grown in RPMI medium without phenol red and 5% charcoal stripped fetal bovine serum, transiently transfected with PR luciferase reporter (CCS-6043L signal reporter assay kit, Qiagen). The cells were stimulated R5020 as PR agonist and treated in the presence or absence of the tested compounds for 24 hours. […]
MEASURED PROPERTY: Agonist rel to R5020 (%)

These recorded examples may help you get a feel for the data.
| COMPOUND | MEASURED RESULT |
| --- | --- |
| C[C@]12C[C@H](c3ccc(-c4ccoc4)cc3)C3=C4CCC(=O)C=C4CCC3C1CCC21OCCC1=C(F)F (stereo partly shown) [EC-313] | 7.8 |
| CC[C@@H]1CC2C3CCC4=CC(=O)CCC4=C3[C@@H](c3ccc(-c4cccnc4)cc3)C[C@]2(C)C1C(C)=O (stereo partly shown) [EC-342] | 7 |
| C=C[C@@H]1CC2C3CCC4=CC(=O)CCC4=C3[C@@H](c3ccc(-c4cccnc4)cc3)C[C@]2(C)C1C(C)=O (stereo partly shown) [EC344] | 0.32 |
| CC(=O)O[C@]1(C(C)=O)CC[C@H]2[C@@H]3CCC4=CC(=O)CCC4=C3[C@@H](c3ccc(N(C)C)cc3)C[C@@]21C [CDB-2914, reference compound] | 1.5 |
| C=C[C@@H]1CC2C3CCC4=CC(=O)CCC4=C3[C@@H](c3ccc(-c4ccoc4)cc3)C[C@]2(C)C1C(C)=O (stereo partly shown) [EC345] | 0.65 |
| C=C[C@@H]1CC2C3CCC4=CC(=O)CCC4=C3[C@@H](c3ccc(-n4ccnc4)cc3)C[C@]2(C)C1C(C)=O (stereo partly shown) [EC347] | 9.7 |

[A] C=C1CCOC12CCC1C3CCC4=CC(=O)CCC4=C3[C@@H](c3ccc(-n4ccnc4)cc3)C[C@@]12C (stereo partly shown) [EC336]
[B] C[C@]12C[C@H](c3ccc(S(C)(=O)=O)cc3)C3=C4CCC(=O)C=C4CC[C@H]3[C@@H]1CC[C@@]2(O)C(F)(F)C(F)(F)F [BAY 1002670, reference compound]
Prompt line: // compare measured Agonist rel to R5020 (%), left A , right B , return larger Output the label that corresponds to your choice.
Response line: A
(A: 7%, B: 3.9%)

[1] CC(=O)C1[C@H](C)CC2C3CCC4=CC(=O)CCC4=C3[C@@H](c3ccc(-c4cccnc4)cc3)C[C@@]21C (stereo partly shown) [EC348]
[2] COCC(=O)[C@@]1(OC(C)=O)CC[C@H]2[C@@H]3CCC4=CC(=O)CCC4=C3[C@@H](c3ccc(N(C)C)cc3)C[C@@]21C [CDB-4124, reference compound]
Prompt line: // compare measured Agonist rel to R5020 (%), left 1 , right 2 , return larger Output the label that corresponds to your choice.
Response line: 1

---

Target: progesterone receptor (Homo sapiens)
Sequence (P06401 679-933 limits assumed): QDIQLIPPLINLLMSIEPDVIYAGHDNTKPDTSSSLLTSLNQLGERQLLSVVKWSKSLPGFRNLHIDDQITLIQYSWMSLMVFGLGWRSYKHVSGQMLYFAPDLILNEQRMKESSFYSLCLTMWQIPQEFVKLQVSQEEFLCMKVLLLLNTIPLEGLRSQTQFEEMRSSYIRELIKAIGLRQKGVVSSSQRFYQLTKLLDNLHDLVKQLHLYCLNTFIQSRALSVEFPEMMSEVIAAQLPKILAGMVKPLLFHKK
Assay: PR transactivation assay, agonistic activity (PR luciferase reporter)
Type: cell-based
Settings: control compound R5020; T47D cells; read-out: Control EC50
MEASURED PROPERTY: pEC50
Lab note: report pEC50 as minus log10 of the concentration in molar units, number only.

Prompt line: Identify measured pEC50 corresponding to CCC(=O)[C@@]1(C)CC[C@H]2[C@@H]3CCC4=CC(=O)CCC4=C3CC[C@@]21C [R5020, reference compound]
Response line: 9.46

---

Biological target: progesterone receptor (Homo sapiens)
Assay: PR transactivation assay, antagonistic activity (PR luciferase reporter)
Format: cell-based
Conditions: T47D cells, stimulant R5020; read-out: IC50 Average of 2 expts
MEASURED PROPERTY: IC50 (nM)

| COMPOUND | SYSTEM TESTED | READOUT UNIT | MEASURED RESULT |
| --- | --- | --- | --- |
| CC(=O)O[C@]1(C(C)=O)CC[C@H]2[C@@H]3CCC4=CC(=O)CCC4=C3[C@@H](c3ccc(N(C)C)cc3)C[C@@]21C [CDB-2914, reference compound] | progesterone receptor (Homo sapiens) | nM | 0.65 |
| COC[C@]1(OC)CC[C@H]2[C@@H]3CCC4=CC(=O)CCC4=C3[C@@H](c3ccc(/C=N/O)cc3)C[C@@]21C [ASOPRISNIL, reference compound] | progesterone receptor (Homo sapiens) | nM | 0.62 |
| C=C[C@@H]1CC2C3CCC4=CC(=O)CCC4=C3[C@@H](c3ccc(-c4cccnc4)cc3)C[C@]2(C)C1C(C)=O (stereo partly shown) | progesterone receptor (Homo sapiens) | nM | 0.35 |
| C[C@]12C[C@H](c3ccc(-n4ccnc4)cc3)C3=C4CCC(=O)C=C4CCC3C1CC[C@@]2(O)C(F)(F)C(F)(F)F (stereo partly shown) | progesterone receptor (Homo sapiens) | nM | 0.46 |
